koff: recorded values
# study-system: human IL-6 (human, UniProt P05231 30-212)
# Sequence (P05231 30-212 limits assumed): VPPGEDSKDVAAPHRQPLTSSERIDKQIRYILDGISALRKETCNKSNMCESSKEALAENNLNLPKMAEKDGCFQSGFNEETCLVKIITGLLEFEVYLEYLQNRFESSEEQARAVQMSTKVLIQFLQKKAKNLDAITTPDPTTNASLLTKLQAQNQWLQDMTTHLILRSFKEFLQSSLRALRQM
# measurement-protocol: SPR (Biacore), supernatant antibody on Protein A chip, IL-6 flowed, 37 C
reported-property: koff (s⁻¹)

1) anti-IL-6 antibody, heavy chain T63E, G66D / light chain M32L, M50D, N52S, M88Q (antibody, human IgG1, V domains shown, Human IgG1) VH: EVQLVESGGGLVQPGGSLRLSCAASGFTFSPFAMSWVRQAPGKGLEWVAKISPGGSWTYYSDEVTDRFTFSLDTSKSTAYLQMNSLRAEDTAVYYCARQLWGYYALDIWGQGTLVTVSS VL: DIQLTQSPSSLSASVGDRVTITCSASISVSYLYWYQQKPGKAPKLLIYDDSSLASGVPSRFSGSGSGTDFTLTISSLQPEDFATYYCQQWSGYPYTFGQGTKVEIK | 0.000485
2) anti-IL-6 antibody, heavy chain T65H, G66D / light chain M32L, M50D, N52S, M88Q (antibody, human IgG1, V domains shown, Human IgG1) VH: EVQLVESGGGLVQPGGSLRLSCAASGFTFSPFAMSWVRQAPGKGLEWVAKISPGGSWTYYSDTVHDRFTFSLDTSKSTAYLQMNSLRAEDTAVYYCARQLWGYYALDIWGQGTLVTVSS VL: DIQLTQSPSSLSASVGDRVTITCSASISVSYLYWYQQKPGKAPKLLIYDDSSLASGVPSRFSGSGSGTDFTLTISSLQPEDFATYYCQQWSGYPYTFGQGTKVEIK | 0.000423
3) anti-IL-6 antibody, heavy chain T65A, G66D / light chain M32L, M50D, N52S, M88Q (antibody, human IgG1, V domains shown, Human IgG1) VH: EVQLVESGGGLVQPGGSLRLSCAASGFTFSPFAMSWVRQAPGKGLEWVAKISPGGSWTYYSDTVADRFTFSLDTSKSTAYLQMNSLRAEDTAVYYCARQLWGYYALDIWGQGTLVTVSS VL: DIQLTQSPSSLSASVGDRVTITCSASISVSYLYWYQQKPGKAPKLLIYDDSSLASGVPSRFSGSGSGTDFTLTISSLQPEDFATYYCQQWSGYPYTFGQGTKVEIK | 0.000542
